molecular target: Human complement Factor D, mature (human, UniProt P00746 27-253); experiment: cell-based or functional assay
Sequence (P00746 27-253): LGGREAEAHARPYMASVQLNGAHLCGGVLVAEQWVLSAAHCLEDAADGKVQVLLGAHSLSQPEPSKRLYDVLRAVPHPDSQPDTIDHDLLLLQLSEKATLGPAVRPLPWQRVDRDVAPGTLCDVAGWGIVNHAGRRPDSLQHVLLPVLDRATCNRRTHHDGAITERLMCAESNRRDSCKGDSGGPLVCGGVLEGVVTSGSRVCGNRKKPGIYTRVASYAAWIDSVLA
quantity: IC50, TR-FRET assay of Factor D (50 pM) cleavage of factor B
Use pM as the unit, but write only the number.

*Q* If you can, please state the reported IC50, TR-FRET assay of Factor D (50 pM) cleavage of factor B value of hu20D12.v2.3.C+TP-Oct (Fab, V domains shown, C-terminal Cys (Cys-226, EU numbering) linked through maleimide to a 40K eight-armed PEG with tripentaerythritol (TP) core) VH: EVQLVQSGAEVKKPGASVKVSCKASGYTFTSYYMYWVRQAPGQGLEWIGEINPYSGDTNFNEKFKSRATLTVDTSTSTAYLELSSLRSEDTAVYYCAREGGFAYWGQGTLVTVSS VL: DIQMTQSPSSLSASVGDRVTITCKASQNVDTDVAWFQQKPGKAPKGLIRSASSRYSGVPSRFSGSGSGTDFTLTISSLQPEDFATYYCQQYNNYPLTFGQGTKVEIKR .
*A* 13

// provenance: patent US20170145112A1
